Form field: Plant response rating, Kochia (one value per entry).
Test system: Kochia (Kochia scoparia)
Experiment: Test A postemergence
Format: in vivo
Conditions: 125 g ai/ha, postemergence; visual rating after approx. 10 d, 0 to 100 scale (0 no effect, 100 complete control)
Output spec: single numeric token, no unit.

Past entries and their recorded results:
>>> df
                                   molecule  reported_measurement
0  CN1CC(c2cccc(C(F)(F)F)c2)C(C(=O)Nc2cccc(F)c2F)C1=O (stereo not drawn) [Compound 636]                    50
1  O=C1NCC(c2ccsc2Br)C1C(=O)Nc1ccccc1F (stereo not drawn) [Compound 597]                     0
2  CCc1cccc(C2CN(C)C(=O)C2C(=O)Nc2ccccc2F)c1 (stereo not drawn) [Compound 567]                    20

Kindly note the recorded Plant response rating, Kochia for Cc1ccc(C2CNC(=O)C2C(=O)Nc2ccccc2F)cc1C(F)(F)F (racemic) [Compound 678] , which is 0

What the record says about Cc1cccc(C2CN(C)C(=O)C2C(=O)Nc2cccc(F)c2F)c1 (stereo not drawn) [Compound 667] : Plant response rating, Kochia is 50

Briefly, Plant response rating, Kochia measured for CC(C)Oc1cccc(C2CNC(=O)C2C(=O)Nc2ccccc2F)c1 (stereo not drawn) [Compound 552] : 0

###

System: Galium (catchweed bedstraw, Galium aparine)
Experiment: Test A postemergence
Format: in vivo
Conditions: 125 g ai/ha, postemergence; visual rating after approx. 10 d, 0 to 100 scale (0 no effect, 100 complete control)
# Plant response rating, Galium per entry

Worked cases, answers included:
In [3]: df
Out[3]:
                                   compound                       experimental_target  reported_measurement
0  O=C1NCC(c2cc(F)c(F)cc2F)C1C(=O)Nc1ccc(F)c(F)c1F (stereo not drawn) [Compound 614]  Galium (catchweed bedstraw, Galium aparine)                    30
1  CN1CC(c2ccc(C(F)(F)F)cc2)C(C(=O)Nc2ccc(F)cc2F)C1=O (stereo not drawn) [Compound 625]  Galium (catchweed bedstraw, Galium aparine)                    30

Next:
Reported Plant response rating, Galium ( Cc1ccc(C2CNC(=O)C2C(=O)Nc2ccc(F)c(F)c2F)cc1C(F)(F)F (racemic) [Compound 681] ) = 30

###

Tested on: ragweed (common ragweed, Ambrosia elatior)
Assay: Test A preemergence
Type: in vivo
Settings: Ambrosia artemisiifolia, pre-emergence, 240 h, 500 g ai/ha, preemergence; 0 to 100 scale, 0 = no effect, 100 = complete control; read-out: Plant response rating, Ragweed
experimental readout: pest or weed control at 500 g/ha (%)
Just the number in %, nothing appended.

For record CN1C[C@H](c2ccc(F)c(F)c2)[C@@H](C(=O)Nc2cccc(F)c2F)C1=O the listed pest or weed control at 500 g/ha is 70

Data point: Cc1ccc([C@H]2CNC(=O)[C@@H]2C(=O)Nc2cccc(F)c2F)c(F)c1 ; pest or weed control at 500 g/ha = 80

Per the record, C=CCN1C[C@H](c2ccc(OC)c(F)c2)[C@@H](C(=O)Nc2cccc(F)c2F)C1=O has pest or weed control at 500 g/ha of 0

For CN1C[C@H](c2ccc(C(F)(F)F)cc2)[C@@H](C(=O)Nc2ccc(F)c(F)c2F)C1=O the compound record lists pest or weed control at 500 g/ha as 80

The measured pest or weed control at 500 g/ha associated with CN1C[C@H](c2ccc(C(F)(F)F)cc2)[C@@H](C(=O)Nc2ccccc2C(F)(F)F)C1=O reads 50

###

Listed next: entries and their corresponding plant injury at 500 g/ha.
System: wheat (Triticum aestivum)
Experiment: Test A postemergence
Assay type: in vivo
Conditions: Triticum aestivum, post-emergence, 240 h, Postemergence, 500 g ai/ha; visual injury, 0 to 100 scale (0 no effect, 100 complete control), approx. 10 d; read-out: Plant response rating, Wheat

// solved cases for plant injury at 500 g/ha follow
In [3]: df
Out[3]:
                                   compound      experimental_readout  reported_measurement
0  CN1C[C@H](c2ccc(OC(F)F)cc2)[C@@H](C(=O)Nc2ccccc2F)C1=O  plant injury at 500 g/ha                   60%
1  CN1C[C@H](c2cccc(C(C)(F)F)c2)[C@@H](C(=O)Nc2cccc(F)c2F)C1=O  plant injury at 500 g/ha                   80%

Below: the item to evaluate.
Kindly note the recorded plant injury at 500 g/ha for O=C1NCC(c2c(Cl)cccc2Cl)C1C(=O)Nc1ccccc1F (stereo not drawn) , which is 0%

###

System: ragweed (common ragweed, Ambrosia elatior)
Assay: Test A preemergence
Assay type: in vivo
Settings: 125 g ai/ha, preemergence; 0 to 100 scale (0 no effect, 100 complete control)
Excerpt: […]
experimental readout: Plant response rating, Ragweed
Lab note: record the figure alone, no unit after it.

Answered examples (2):
>>> print(df.to_string())
                                   molecule            experimental_readout  reported_measurement
0  CN1CC(c2ccc(C(F)(F)F)c(F)c2)C(C(=O)Nc2ccc(F)cc2F)C1=O (stereo not drawn) [Compound 398]  Plant response rating, Ragweed                    20
1  O=C1NCC(c2cccc(OCC(F)F)c2)C1C(=O)Nc1ccc(F)c(F)c1F (stereo not drawn) [Compound 407]  Plant response rating, Ragweed                     0

Moving on to the next molecule.
O=C1NCC(c2ccc(F)c(F)c2)C1C(=O)Nc1ccc(F)cc1Cl (stereo not drawn) [Compound 411] on ragweed (common ragweed, Ambrosia elatior) gives Plant response rating, Ragweed = 0

###

Overview of recorded pest or weed control at 15.625 g/ha for various molecules
Tested on: giant foxtail (Setaria faberi)
Assay: Test G Post-Emergence Protocol
Assay type: in vivo
Conditions: Setaria faberi, post-emergence, 312 h, 15.625 g ai/ha, evaluated after 13 days (100=total damage to plant; 0=no damage to plant), read-out: Foxtail, Giant damage rating
Reply with a number, then the unit it belongs to.

                                   molecule  reported_measurement
0  CN1C[C@H](c2ccc(C(F)(F)F)cc2)[C@@H](C(=O)Nc2ccc(Cl)cc2[N+](=O)[O-])C1=O (racemic) [Compound 1432]                    0%

Per the records, this molecule ( CN1C[C@H](c2ccc(C(F)(F)F)cc2)[C@@H](C(=O)Nc2ccc(C(F)(F)F)cc2F)C1=O (racemic) [Compound 1426] ) has pest or weed control at 15.625 g/ha equal to 0%

For this molecule ( COc1ccc(C2CN(C)C(=O)C2C(=O)Nc2cccc(F)c2F)cc1C (centres unmarked) [Compound 1688] ), measured pest or weed control at 15.625 g/ha is 60%

Data point: Cc1cc(NC(=O)[C@@H]2C(=O)N(C)C[C@H]2c2ccc(C(F)(F)F)cc2)ccc1F (racemic) [Compound 1593] ; pest or weed control at 15.625 g/ha = 0%

Sample CN1CC(C2CCN=C(C(C)(C)C)N2)C(C(=O)Nc2ccc(F)c(F)c2F)C1=O (centres unmarked) [Compound 1771] ; pest or weed control at 15.625 g/ha observed: 0%

###

Tested on: ragweed (common ragweed, Ambrosia elatior)
Assay: Test A postemergence
Format: in vivo
Settings: Ambrosia artemisiifolia, post-emergence, 240 h, 125 g ai/ha, postemergence; visual injury on 0 to 100 scale (0 no effect, 100 complete control), approx. 10 d; read-out: Ragweed plant response rating
experimental readout: pest or weed control at 125 g/ha (%)
Reply numerically in %, unit not repeated.

For orientation, consider the following solved cases.
                                   compound              experimental_readout  reported_measurement
0  COCc1ccccc1NC(=O)[C@H]1C(=O)N(C)C[C@@H]1c1cccc(C(F)(F)F)c1 (racemic)  pest or weed control at 125 g/ha                    30
1  O=C1NC[C@H](c2cc(C(F)F)cs2)[C@H]1C(=O)Nc1ccccc1F  pest or weed control at 125 g/ha                     0
2  CCc1cc(CC)cc([C@H]2CNC(=O)[C@@H]2C(=O)Nc2ccccc2F)c1  pest or weed control at 125 g/ha                     0
3  Cc1cc([C@H]2CNC(=O)[C@@H]2C(=O)Nc2ccccc2S(C)(=O)=O)ccc1C(F)(F)F  pest or weed control at 125 g/ha                     0
4  O=C1NC[C@H](c2ccc(C(F)(F)F)cn2)[C@H]1C(=O)Nc1ccc(F)c(F)c1F  pest or weed control at 125 g/ha                     0
5  CN1C[C@H](c2csc(C(F)F)c2)[C@@H](C(=O)Nc2cccc(F)c2F)C1=O  pest or weed control at 125 g/ha                    50

In the following, a different compound is considered.
# pest or weed control at 125 g/ha of COc1cccc([C@H]2CNC(=O)[C@@H]2C(=O)Nc2cccc(F)c2F)c1F = 0
